Tested on: ECa-109 cell line
Measurement description: Antiproliferative activity against human ECA109 cells after 48 hrs by MTT assay
Assay type: functional, cell-based
Condition context: ECa-109, 48 h
Metric name: pIC50
Convention used: pIC50 is expressed as -log10 of the molar concentration.

Here's what some known entries look like.
O=C1CSC(c2ccc([N+](=O)[O-])cc2)c2cc3c(cc2N1)OCO3 (centres undefined)	4.37
COc1cccc(C2SCC(=O)Nc3cc4c(cc32)OCO4)c1 (centres undefined)	4.30
Cc1ccc(C2SCC(=O)Nc3cc4c(cc32)OCO4)cc1 (centres undefined)	4.56
CC1SC(c2ccc([N+](=O)[O-])cc2)c2cc3c(cc2NC1=O)OCO3 (centres undefined)	4.30
O=C1CSC(c2ccc(Cl)cc2)c2cc3c(cc2N1)OCO3 (centres undefined)	4.44

The measured pIC50 associated with O=C1CSC(c2ccccc2)c2cc3c(cc2N1)OCO3 (centres undefined) reads 4.41

The measured pIC50 associated with O=C1CSC(c2ccco2)c2cc3c(cc2N1)OCO3 (centres undefined) reads 4.38

----------
Tested on: EC9706
Measurement description: Antiproliferative activity against human EC9706 cells after 48 hrs by MTT assay
Type: functional, cell-based
Condition context: EC9706, 48 h
Metric name: IC50

Here's what some known entries look like.
O=C1CSC(c2cccc([N+](=O)[O-])c2)c2cc3c(cc2N1)OCO3 (stereo not drawn)	> 200 µM
Cc1ccc(C2SC(C)C(=O)Nc3cc4c(cc32)OCO4)cc1 (stereo not drawn)	> 200 µM

The measured IC50 associated with CC1SC(c2ccc(Cl)cc2)c2cc3c(cc2NC1=O)OCO3 (stereo not drawn) reads > 200 µM

----------
Test system: ECa-109 cell line
Measurement description: Antiproliferative activity against human ECA109 cells after 48 hrs by MTT assay
Format: functional, cell-based
Condition context: ECa-109, 48 h
Measured IC50 values are reported for all entries that follow.
Give a bare numeral; the unit µM is implied.

Here's what some known entries look like.
COc1ccc(C2SCC(=O)Nc3cc4c(cc32)OCO4)cc1Br (configuration not stated)	16.2
COc1ccc(C2SCC(=O)Nc3cc4c(cc32)OCO4)cc1 (configuration not stated)	33

Kindly consider the entry below.
The measured IC50 associated with CC1SC(c2cccc([N+](=O)[O-])c2)c2cc3c(cc2NC1=O)OCO3 (configuration not stated) reads 106
